# ASSAY_SYSTEM: BoNT/A light chain (recombinant) (Clostridium botulinum, UniProt P0DPI0 1-448)
# Sequence (P0DPI0 1-448 limits assumed): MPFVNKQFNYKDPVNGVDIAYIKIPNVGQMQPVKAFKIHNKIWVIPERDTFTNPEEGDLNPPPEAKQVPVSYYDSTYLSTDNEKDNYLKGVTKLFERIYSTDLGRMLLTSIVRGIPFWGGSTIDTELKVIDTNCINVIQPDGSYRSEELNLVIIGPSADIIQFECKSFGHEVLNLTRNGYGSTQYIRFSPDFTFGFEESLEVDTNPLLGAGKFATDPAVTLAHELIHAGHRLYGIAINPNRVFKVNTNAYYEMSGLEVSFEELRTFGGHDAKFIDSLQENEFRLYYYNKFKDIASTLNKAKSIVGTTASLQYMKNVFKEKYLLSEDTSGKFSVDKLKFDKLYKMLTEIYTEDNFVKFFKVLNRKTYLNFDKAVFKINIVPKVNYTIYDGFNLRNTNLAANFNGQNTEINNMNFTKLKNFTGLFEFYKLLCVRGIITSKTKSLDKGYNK
# PROCEDURE_TEXT: yeast scFv FACS
Reported Kd is given for each of the following binders.

BINDER: 10F9 scFv (scFv, mouse) scFv: EVQLQQSGAELVKPGASVKLSCKASGYTFTSYWMHWIKQRPGQGLEWIGVIDPSDSYTNYNQKFKGKATLTVDTSSSTAYMQLSSLTSEDSAVYYCATGGNGFFDYWGQGTTLTVSSVDLKSGGSTSGSGKPGSGEGSSGSARDIVLTQSPASLAVSLGQRATISCRASESVDYDGDSYMNWYQQKPGQPPKLLIYAASNLESGIPARFSGSGSGTDFTLNIHPVEEEDAATYYCLQSNEAPWTFGGGTKLELK
Kd (nM): 0.09

BINDER: 10H10 scFv (scFv, mouse) scFv: QVQLQQSGAELVRPGTSVKLSCKASGYTFTSYWMHWVKQRPGQGLEWIGVIDPSDSYTNYNQKFKGKATLTVDTSSSTAYMQLSSLTSEDSAVYYCARGGGRSSLDYWGQGTSVTVSSVDLKSGGSTSGSGKPGSGEGSSGSARDVVMTQTPASLAVSLGQRATISCKASQSVDYDGDSYMNWYQQKPGQPPKLLIYAASSLESGIPARFSGSGSGTDFTLNIHPVEEEDAATYYCQQSNEDPYTFGGGTKLEIK
Kd (nM): 11.1

BINDER: 1D2 scFv (scFv, mouse) scFv: QVQLKESGAELMKPGASVKLSCKATGYTFTGYWIEWVKQRPGHGLEWIGEILPGSGSTNYNEKFKGKATFTADTSSNTAYMQLSSLTTEDSAIYYCASIYYGHDYWGQGTTLTVSSVDLKSGGSTSGSGKPGSGEGSSGSARDIVMTQSPKFMSTSVGDRVSVTCKASQNVGTNVAWYQQKPGQSPKALIYSASYRYSGVPDRFTGSGSGTDFTLTISNVQSEDLAEYFCQQYNSYPYTFGGGTKLEIK
Kd (nM): 6.4
